Source: PubChem BioAssay

- target: Left-right determination factor 2 (Homo sapiens) (UniProt O00292)
- Sequence (O00292 whole entry, looked up): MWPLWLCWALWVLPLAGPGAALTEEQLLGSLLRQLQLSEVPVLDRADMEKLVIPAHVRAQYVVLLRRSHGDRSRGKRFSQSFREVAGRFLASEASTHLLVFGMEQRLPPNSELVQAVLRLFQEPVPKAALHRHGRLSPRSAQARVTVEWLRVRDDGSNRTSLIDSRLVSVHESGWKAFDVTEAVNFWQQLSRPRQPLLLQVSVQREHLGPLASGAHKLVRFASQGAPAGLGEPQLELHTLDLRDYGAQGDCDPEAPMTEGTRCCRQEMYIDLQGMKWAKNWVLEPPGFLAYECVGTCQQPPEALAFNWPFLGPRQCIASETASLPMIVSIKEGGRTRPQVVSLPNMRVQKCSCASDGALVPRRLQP
- assay.procedure: LEFTY2 binders on small-molecule microarrays, primary screen, biochemical, small-molecule microarray, 635 nm fluorescence scan (AID 1110)
- protocol.conditions: LEFTY2 binding, higher = more signal
Property: composite z-score; scope: individual molecules

molecule	target	composite z-score
Cc1ccc(S[C@]2(C(=O)NCC(C)C)CC(=O)N(Cc3ccccc3)[C@@H]2c2ccc(CO)cc2I)cc1	Left-right determination factor 2 (Homo sapiens) (UniProt O00292)	0.118
O=C1O[C@@H](c2ccccc2)[C@@H](c2ccccc2)N2[C@@H](c3ccc(OCCO)cc3)[C@]3(C(=O)Nc4ccc(C#CC5=CCCCC5)cc43)[C@@H](C(=O)O)[C@H]12	Left-right determination factor 2 (Homo sapiens) (UniProt O00292)	0.374
O=C1[C@]2(CO)C=C(Br)[C@@H](C[C@@H]2c2ccccc2)[C@@]12CO2	Left-right determination factor 2 (Homo sapiens) (UniProt O00292)	0.218
COCCOC(=O)N1C(=O)[C@@]2(c3cc(C#CCC(C(=O)OC)C(=O)OC)ccc31)[C@H](C(=O)N1CCN(c3ncccn3)CC1)[C@H]1C(=O)O[C@H](c3ccccc3)[C@H](c3ccccc3)N1[C@@H]2c1ccc(OCCO)cc1	Left-right determination factor 2 (Homo sapiens) (UniProt O00292)	0.521
O=c1cccc(CCc2ccccc2)o1	Left-right determination factor 2 (Homo sapiens) (UniProt O00292)	0.103
O=C1OCCC/C=C\[C@H]2OC34C=CCN(Cn5nnc6ccccc65)C(=O)[C@H]3N(CCCCCO)C(=O)[C@@H]4C12 (stereo not given in full)	Left-right determination factor 2 (Homo sapiens) (UniProt O00292)	-1.5
O=C1OCCC=C[C@H]2OC34C=CCN(Cc5ccccc5)C(=O)[C@H]3N(CCCCCCO)C(=O)[C@@H]4C12 (stereo not given in full)	Left-right determination factor 2 (Homo sapiens) (UniProt O00292)	-1.06
CCOC(=O)C[C@H]1[C@H](OC(=O)Cc2ccc3c(c2)OCO3)[C@@H](NC(=O)c2ccc(-c3ccccc3)cc2)c2cc(OCCCO)ccc2N1C(=O)c1ccccc1	Left-right determination factor 2 (Homo sapiens) (UniProt O00292)	0.525
C=CCN1C(=O)[C@]2(O[C@H](CCO)[C@@H]([Si](C)(C)c3ccc(OC)cc3)[C@@H]2C)c2cc(NC(=O)[C@H](C)O)ccc21	Left-right determination factor 2 (Homo sapiens) (UniProt O00292)	0.0707
COC(=O)C(CC#Cc1ccc2c(c1)[C@]1(C(=O)N2)[C@H](c2ccc(OCCO)cc2)N2[C@H](c3ccccc3)[C@H](c3ccccc3)OC(=O)[C@H]2[C@@H]1C(=O)NC[C@H](O)c1ccccc1)C(=O)OC	Left-right determination factor 2 (Homo sapiens) (UniProt O00292)	-0.0571
C=CCNC(=O)[C@H]1[C@@H]2C(=O)O[C@@H](c3ccccc3)[C@@H](c3ccccc3)N2[C@@H](c2ccc(O)cc2)[C@]12C(=O)N(C(=O)OCCOC)c1ccc(C#CCCO)cc12	Left-right determination factor 2 (Homo sapiens) (UniProt O00292)	-0.166
COCCOC(=O)N1C(=O)[C@@]2(c3cc(C#CCNC(N)=O)ccc31)[C@H](c1ccc(O)cc1)N1[C@H](c3ccccc3)[C@H](c3ccccc3)OC(=O)[C@H]1[C@@H]2C(=O)NC[C@H](O)c1ccccc1	Left-right determination factor 2 (Homo sapiens) (UniProt O00292)	0.952
CC=CC(O)C1C=CC2C(=O)N(c3ccccc3)C(=O)C2N1Nc1ccc(C(C)C)cc1 (stereo not given)	Left-right determination factor 2 (Homo sapiens) (UniProt O00292)	0.363
C=CCC(OC(C)=O)[C@@H]1[C@@H](N(Cc2cc3ccccc3o2)C(=O)c2ccc(C)cc2)c2cc(OCCCO)ccc2N1C(=O)c1ccc2ccccc2c1 (stereo not given in full)	Left-right determination factor 2 (Homo sapiens) (UniProt O00292)	0.161
CC(c1ccccc1)C(O)C1C=CC2C(=O)NC(=O)C2N1Nc1ccccn1 (stereo not given)	Left-right determination factor 2 (Homo sapiens) (UniProt O00292)	0.313
C=CCOC(=O)[C@@H]1[C@H]2C(=O)O[C@H](c3ccccc3)[C@H](c3ccccc3)N2[C@H](c2ccc(OCCOC(=O)[C@@H]3C[C@@H]4C(=O)NCC(=O)N4[C@@H]3c3cccc(OCCO)c3)cc2)[C@@]12C(=O)Nc1ccc(I)cc12	Left-right determination factor 2 (Homo sapiens) (UniProt O00292)	0.949
COCCOC(=O)N1C(=O)[C@@]2(c3cc(C#CCNC(N)=O)ccc31)[C@H](C(=O)N1CCc3cc(OC)c(OC)cc3C1)[C@H]1C(=O)O[C@H](c3ccccc3)[C@H](c3ccccc3)N1[C@@H]2c1ccc(OCCO)cc1	Left-right determination factor 2 (Homo sapiens) (UniProt O00292)	0.556
COc1ccc([Si](C)(C)[C@@H]2[C@@H](CC(=O)N3CCC[C@H]3CO)O[C@]3(C(=O)N(C)c4c(Br)cc(C)cc43)[C@H]2C)cc1	Left-right determination factor 2 (Homo sapiens) (UniProt O00292)	0.396
O=C/C=C/c1ccc(Cl)cc1	Left-right determination factor 2 (Homo sapiens) (UniProt O00292)	0.163
CC(C)C[C@@H]1NC(=O)[C@H]2C[C@@H](C(=O)NCCCCCNC(=O)CS)[C@@H](c3cccc(OCCO)c3)N2C1=O	Left-right determination factor 2 (Homo sapiens) (UniProt O00292)	1.25
COCCOC(=O)N1C(=O)[C@@]2(c3cc(C#Cc4ccc(OC)cc4)ccc31)[C@H](C(=O)N1CCN(c3ncccn3)CC1)[C@H]1C(=O)O[C@H](c3ccccc3)[C@H](c3ccccc3)N1[C@@H]2c1ccc(O)cc1	Left-right determination factor 2 (Homo sapiens) (UniProt O00292)	0.0473
COc1ccc(CCNC(=O)[C@@]2(c3ccc([N+](=O)[O-])cc3)CC(=O)N(CC34CC5CC(CC(C5)C3)C4)[C@@H]2c2ccc(CO)cc2)cc1	Left-right determination factor 2 (Homo sapiens) (UniProt O00292)	0.614
NCCCCCNC(=O)[C@H]1C[C@H]2C(=O)NCC(=O)N2[C@H]1c1cccc(OCCO)c1	Left-right determination factor 2 (Homo sapiens) (UniProt O00292)	0.296
O=C1O[C@H](c2ccccc2)[C@H](c2ccccc2)N2[C@H]1[C@@H](C(=O)NC[C@H](O)c1ccccc1)[C@]1(C(=O)Nc3ccc(C#CCCO)cc31)[C@H]2c1ccc(O)cc1	Left-right determination factor 2 (Homo sapiens) (UniProt O00292)	-0.47
O=C1C[C@@](C(=O)NC2CC2)(c2ccc([N+](=O)[O-])cc2)[C@@H](c2ccc(CO)cc2)N1CC12CC3CC(CC(C3)C1)C2	Left-right determination factor 2 (Homo sapiens) (UniProt O00292)	-0.523
